Target: human GPR119 (Homo sapiens, UniProt Q8TDV5)
Sequence (Q8TDV5 whole entry): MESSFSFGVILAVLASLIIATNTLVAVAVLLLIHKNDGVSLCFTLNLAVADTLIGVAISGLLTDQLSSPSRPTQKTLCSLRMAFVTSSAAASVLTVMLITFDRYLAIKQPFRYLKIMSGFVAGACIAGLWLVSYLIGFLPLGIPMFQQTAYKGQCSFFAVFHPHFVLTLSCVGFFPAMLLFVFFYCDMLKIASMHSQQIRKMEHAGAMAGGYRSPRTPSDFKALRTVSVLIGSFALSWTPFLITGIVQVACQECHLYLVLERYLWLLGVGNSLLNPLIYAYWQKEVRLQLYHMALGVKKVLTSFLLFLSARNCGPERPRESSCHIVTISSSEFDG
Test: Cyclic AMP assay in stable cell line (Flp-In-CHO-hGPR119, HTRF)
Settings: Flp-In-CHO-hGPR119 cells, cAMP HTRF, 1 mM IBMX, 30 minutes at 37° C.; read-out: CHO-GPR119-HTRF (3158) EC50
quantity: EC50 (µM)

>>> assay_result("Cc1ccc(SC2CCN(C(=O)c3[nH]c4ccccc4c3S(=O)(=O)c3ccc(Cl)cc3)CC2)cc1")
0.018

(A) O=C(c1[nH]c2ccccc2c1SC1CCCCC1)N1CCC(Cc2ccccc2)CC1
(B) O=C(c1[nH]c2ccccc2c1S(=O)(=O)c1ccc(Cl)cc1)N1CCN(Cc2ccncc2)CC1
(C) O=C(c1[nH]c2c(F)cccc2c1S(=O)(=O)c1ccc(Cl)cc1)N1CCC(Cc2ccccc2)CC1
*Q* Order the records by EC50, with each subsequent value no larger than the one before. Could you list the labels in the order requested?
*A* A, B, C
